The measurements presented in this section are drawn from BigSolDB 2.1.

- applied_conditions: in dichloromethane, 288.15 K
reported_endpoint: solubility (mole fraction)
Number only, please.

Q: Please report solubility (mole fraction) for the following compound: `COC(=O)[C@@H](N)CS.Cl`
Ans: 7e-05

###

- applied_conditions: in n-pentanol, 308.15 K
reported_endpoint: solubility (mole fraction)
Number only, please.

Q: Please report solubility (mole fraction) for the following compound: `COC(=O)[C@@H](N)CS.Cl`
Ans: 0.00924

###

- applied_conditions: in isobutanol, 323.15 K
reported_endpoint: solubility (mole fraction)
Number only, please.

Q: Please report solubility (mole fraction) for the following compound: `COC(=O)[C@@H](N)CS.Cl`
Ans: 0.0125

###

- applied_conditions: in sec-butanol, 328.15 K
reported_endpoint: solubility (mole fraction)

Q: Please report solubility (mole fraction) for the following compound: `COC(=O)[C@@H](N)CS.Cl`
Ans: 0.00958

###

- applied_conditions: in isobutanol, 328.15 K
reported_endpoint: solubility (mole fraction)
Number only, please.

Q: Please report solubility (mole fraction) for the following compound: `COC(=O)[C@@H](N)CS.Cl`
Ans: 0.0162

###

- applied_conditions: in n-pentanol, 293.15 K
reported_endpoint: solubility (mole fraction)

Q: Please report solubility (mole fraction) for the following compound: `COC(=O)[C@@H](N)CS.Cl`
Ans: 0.0054

###

- applied_conditions: in 2-butanone, 293.15 K
reported_endpoint: solubility (mole fraction)
Number only, please.

Q: Please report solubility (mole fraction) for the following molecule: `COC(=O)[C@@H](N)CS.Cl`
Ans: 0.00108

###

- applied_conditions: in 2-butanone, 318.15 K
reported_endpoint: solubility (mole fraction)
Number only, please.

Q: Please report solubility (mole fraction) for the following molecule: `COC(=O)[C@@H](N)CS.Cl`
Ans: 0.0025

###

- applied_conditions: in ethanol, 303.15 K
reported_endpoint: solubility (mole fraction)
Number only, please.

Q: Please report solubility (mole fraction) for the following compound: `COC(=O)[C@@H](N)CS.Cl`
Ans: 0.0428

###

- applied_conditions: in ethyl acetate, 323.15 K
reported_endpoint: solubility (mole fraction)
Number only, please.

Q: Please report solubility (mole fraction) for the following molecule: `COC(=O)[C@@H](N)CS.Cl`
Ans: 0.00032

###

- applied_conditions: in methanol, 328.15 K
reported_endpoint: solubility (mole fraction)
Number only, please.

Q: Please report solubility (mole fraction) for the following compound: `COC(=O)[C@@H](N)CS.Cl`
Ans: 0.212

###

- applied_conditions: in n-butanol, 308.15 K
reported_endpoint: solubility (mole fraction)

Q: Please report solubility (mole fraction) for the following compound: `COC(=O)[C@@H](N)CS.Cl`
Ans: 0.0124

###

- applied_conditions: in ethyl acetate, 283.15 K
reported_endpoint: solubility (mole fraction)

Q: Please report solubility (mole fraction) for the following compound: `COC(=O)[C@@H](N)CS.Cl`
Ans: 7e-05

###

- applied_conditions: in n-propanol, 328.15 K
reported_endpoint: solubility (mole fraction)
Number only, please.

Q: Please report solubility (mole fraction) for the following compound: `COC(=O)[C@@H](N)CS.Cl`
Ans: 0.0306

###

- applied_conditions: in acetone, 303.15 K
reported_endpoint: solubility (mole fraction)
Number only, please.

Q: Please report solubility (mole fraction) for the following compound: `COC(=O)[C@@H](N)CS.Cl`
Ans: 0.00093
